- targetSystem: T1, Cynomolgus CD3 (Cynomolgus, UniProt Q95LI5 22-198; Q95LI7 23-181; Q95LI8 22-171)
- T1 construct: whole, on cells; also called CD3 on Cynomolgus PBMCs; CD3 on HSC-F Cynomolgus T cell line
- T1 sequence (Q95LI5 22-198, chain 1 of 3): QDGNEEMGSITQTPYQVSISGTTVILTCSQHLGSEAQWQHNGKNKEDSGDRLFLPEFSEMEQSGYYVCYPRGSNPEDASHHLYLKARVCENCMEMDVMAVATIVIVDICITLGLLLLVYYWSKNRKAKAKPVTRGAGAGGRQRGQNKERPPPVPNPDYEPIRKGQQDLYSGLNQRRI
- T1 sequence (Q95LI7 23-181, chain 2 of 3): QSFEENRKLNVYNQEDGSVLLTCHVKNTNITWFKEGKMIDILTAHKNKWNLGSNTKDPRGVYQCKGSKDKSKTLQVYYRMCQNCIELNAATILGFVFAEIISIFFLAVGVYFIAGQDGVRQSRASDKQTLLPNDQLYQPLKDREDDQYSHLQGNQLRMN
- T1 sequence (Q95LI8 22-171, chain 3 of 3): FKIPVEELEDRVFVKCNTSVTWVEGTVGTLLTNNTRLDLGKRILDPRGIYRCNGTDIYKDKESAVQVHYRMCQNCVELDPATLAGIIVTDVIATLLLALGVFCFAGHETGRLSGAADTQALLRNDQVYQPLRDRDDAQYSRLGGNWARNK
- protocolDetails: apparent KD (KDapp), flow cytometry titration on cynomolgus HSC-F T cell line
assayMetric: Kd (nM)
Hi! Could you send only the number? It should be in nM, unit omitted.

As a guide, the following entries are already answered.
binder	assayMetric	testValue
F332-13B4 (antibody, mouse IgG2a, V domains shown, also called F332-13B4-2) VH: QVQLQQSGPELVKPGASVKISCKASGYSFTNSYVHWVKQTPGQGLEWIGWIYPGSTNIKYNEKFKGKATLTADTSSSTVYMQLSSLTSEDSAVYFCARDGSYFFDYWGQGTTLTVSS VL: DIVMSQSPSSLAVSAGEKVTMTCKSSQSLLNSRTRKNYLAWYQQKPGQSPKLLIYWASTRESGVPDRFTGSGSGTDFTLTISSVQAEDLAVYYCKQSYILRTFGGGTKLEIK	Kd	0.64
F332-7C9 (antibody, mouse IgG2a, V domains shown, also called F332-7C9-2; F332-7C9 (5C7, 7D10)) VH: QVQLQQSGPELVKPGASVRISCKASGYTFTSHYLHWVKQRPGQGFEWIGWIYPGDGNTRYNEKFKDRATLTADKSSSTAYLHLSSLTSEDSAVYFCARDAGYYFDYWGQGTTLAVSS VL: DIVMSQSPSSLAVSAGEKVTMSCKSSQSLLNSRTRKNYLAWYQQKPGQSLKVLIYWASTRESGVPDRFTGSGSGTDFTLTISSVQAEDLAVYYCKQSYSLRTFGGGTKLEIK	Kd	0.36
F332-1E2 (antibody, mouse IgG2a, V domains shown, Sister clone 8C5 shares the same entries; also called F332-1E2-2; F332-1E2 (8C5)) VH: QVQLQQPGAELGKPGTSVKLSCKASGYTFTSYWIHWVKQRPGQGLEWVGNINPNSGSINYNEKFKNKATLTVDKSSSTAYMQLSTLTSEDFAVYYCTRDTSGQYYFDYWGQGTTLTVSS VL: DIVMSQSPSSLAVSAGERVTMSCKSSQSLLNSRTRKNYLAWYQQKPGQSPKLLIYWASTRESGVPDRFTGSGSGTDFTLTISSVQAEDLAVYYCIQSYHLRTFGGGTKLEIK	Kd	0.39
F332-5F2 (antibody, mouse IgG2b, V domains shown, also called F332-5F2-2; F332-5F2 (6G8, 13A3)) VH: QVQLQQPGAELGKPGTSVKLSCKASGYTFTSYWMHWVKQRPGQGLEWIGNINPNGGDSNYNEKFKSKATLTVDKSSSTAYMQLSTLTSEDSAVYYCTRDISGQYYFDFWGQGTSLTVFS VL: DILMSQSPSSLAVSAGEQVTMSCKSSQSLLNSRTRKNYLAWYQQKPGQSPKLLIFWASTRKSGVPDRFTGSGSGTYFTLTISSVQAEDLAVYYCTQSYNLRTFGGGTKLEIK	Kd	0.4
F332-7B7 (antibody, mouse IgG2a, V domains shown, also called F332-7B7-2) VH: QVQLQQPGTELGKPGTSVKLSCKASGYTFTNYWMHWVKQRPGQGLEWIGNINPNSGSTNYNQKFKSKATLTLDKSSSTAYMQFSTLTSEDSAVYYCTRDSSGQYYFDYWGQGTTLTVSS VL: DIVMSQSPSSLAVSAGEKVTMSCKSSQSLLNSRTRKNYLAWYQQKPGQSPKLLIYWASTRESGVPDRFTGSGSGTDFTLTISSVQAEDLAVYYCIQSFHLRTFGGGTKLEIK	Kd	0.28
F332-7C5 (antibody, mouse IgG2a, V domains shown, also called F332-7C5-2; F332-7C5 (5E12, 10A8)) VH: QVQLQQPGAELGKPGTSVKLSCKASGYTFTSYWMHWVKQRPGQGLEWIGNINPSSGITNYNERFKNKATLTVDKSSTTAYMQLSILTSEDSAVYYCSRDISGQYYFNFWGQGTTLTVSS VL: DIVMSQSPSSLAVSAGEKVTMSCKSSQSLLNSRTRKNYLAWYQQKPGQSPKLLIYWASTRESGVPDRFTGTGSGTDFTLTISSVQAEDLAVYYCKQSYNLRTFGGGTKLEIK	Kd	0.37
F332-12F6 (antibody, mouse IgG2a, V domains shown, also called F332-12F6-2) VH: QVQLQQPGAELGKPGTSVKLSCKASGYTFTSYWIHWVKQRPGQGLEWIGNINPNSGSTNYNEKFKSKATLTVDKSSSTAYMQLSTLTSEDSAVYYCTRDISGQYYFDYWGQGTTLTVSS VL: DIVMSQSPSSLAVSAGEKVTMSCKSSQSLLNSRTRKSYLAWYQQKPGQSPKLLIYWASTRESGVPDRFTGSGSGTDFTLTISSVQAEDLAVYYCIQSYNLRTFGGGTKLEIK	Kd	0.61
F332-10B6 (antibody, mouse IgG2a, V domains shown, also called F332-10B6-2; F332-12B5-1) VH: QVQLQQPGAELGKPGTSVNLSCKASGYTFTDYWIHWVKQRPGQGLEWIGNINPNSGDTNYNENFKTKATLTVDRSSSTAYMQLSSLTSEDSAVYYCTRDISGQYYFDFWGQGTTLTVSS VL: DIVMSQSPSSLAVSAGEKVTMSCKSSQSLLNSRTRKNYLAWYQQKPGQSPKLLIYWASTRESGVPDRFTGSGSGTDFTLTISSVQAEDLAVYYCIQSYNLRTFGGGTKLEIK	Kd	2
F332-5D4 (antibody, mouse IgG2b, V domains shown, also called F332-5D4-2; F332-5D4 (5F8)) VH: QVQLQQPGAELGKPGTSVKLSCKASGYTFTSYWMHWVKQRPGQGLEWIGNINPNGGDSNYNEKFKSKATLTVDMSSSTAYMQLSTLTSEDSAVYYCTRDISGQYYFDFWGQGTSLTVFS VL: DILMSQSPSSLAVSAGEQVTMSCKSSQSLLNSRTRKNYLAWYQQKPGQSPKLLIFWASTRKSGVPDRFTGSGSGTYFTLTINSVQTEDLAVYYCTQSYSLRTFGGGTKLEIK	Kd	0.64
F332-8F7 (antibody, mouse IgG2a, V domains shown, also called F332-8F7-3) VH: QVQLQQPGAELGKPGTSVKLSCKASGYTFTSYWIHWVKQRPGQGLEWIGNINPNSGSTNYNEKFKNKATLTVDKSSSTASMQLSTLTSEDSAVYYCTRDISGQYYFDYWGQGTTLTVSS VL: DIVMSQSPSSLAVSTGGEVTMSCKSSQSLLNSRTRKNYLAWYQQKPGQSPKLLIYWASTRESGVPDRFTGSGSGTDFTLTISSVQAEDLAVYYCIQSYSLRTFGGGTKLGIK	Kd	0.97

// moving on: another record for Kd
Incoming: Report Kd for F332-6D7 (antibody, mouse IgG2a, V domains shown, also called F332-6D7-2; F332-6D7 (7G4)) VH: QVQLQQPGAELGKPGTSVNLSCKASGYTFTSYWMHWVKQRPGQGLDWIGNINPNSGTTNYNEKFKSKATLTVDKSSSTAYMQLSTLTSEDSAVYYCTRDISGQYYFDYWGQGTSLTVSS VL: DIVMSQSPSSLAVSAGEKVTMSCKSSQSLLNSRTRKNYLAWYQQKPGQSPKLLIYWASTRESGVPDRFTGSGSGTDFTLTISSVQAEDLAVYYCKQSYSLRTFGGGSKLEIK please.
Outgoing: 0.27

Where do these numbers come from? They come from patent US20250051443A1.
